substrate: NC(=O)N[C@@H](O)C(=O)O; assay: purified protein; type: biochemical, Escherichia coli; settings: 3 mM NAD+ (saturating), 30 °C, value in parentheses is standard error, His-tag kept
I'd appreciate it if you could supply kcat values for the items below.
Give bare numbers, in s⁻¹.

- (S)-ureidoglycolate dehydrogenase (AllD) (Escherichia coli K-12; D141N) (protein, full length, modified pET28b with N-terminal His-tag and TEV site, expressed in E. coli BL21(DE3); tag cut for crystals, kept on mutant enzymes for kinetics; homodimer) MKISRETLHQLIENKLCQAGLKREHAATVAEVLVYADARGIHSHGAVRVEYYAERISKGGTNREPEFRLEETGPCSAILHADNAAGQVAAKMGMEHAIKTAQQNGVAVVGISRMGHSGAISYFVQQAARAGFIGISMCQSNPMVVPFGGAEIYYGTNPLAFAAPGEGDEILTFDMATTVQAWGKVLDARSRNMSIPDTWAVDKNGVPTTDPFAVHALLPAAGPKGYGLMMMIDVLSGVLLGLPFGRQVSSMYDDLHAGRNLGQLHIVINPNFFSSSELFRQHLSQTMRELNAITPAPGFNQVYYPGQDQDIKQRKAAVEGIEIVDDIYQYLISDALYNTSYETKNPFAQ: 1.97

Here is another protein to look at.
Bench note: what kcat did (S)-ureidoglycolate dehydrogenase (AllD) (Escherichia coli K-12; S43A) (protein, full length, modified pET28b with N-terminal His-tag and TEV site, expressed in E. coli BL21(DE3); tag cut for crystals, kept on mutant enzymes for kinetics; homodimer) MKISRETLHQLIENKLCQAGLKREHAATVAEVLVYADARGIHAHGAVRVEYYAERISKGGTNREPEFRLEETGPCSAILHADNAAGQVAAKMGMEHAIKTAQQNGVAVVGISRMGHSGAISYFVQQAARAGFIGISMCQSDPMVVPFGGAEIYYGTNPLAFAAPGEGDEILTFDMATTVQAWGKVLDARSRNMSIPDTWAVDKNGVPTTDPFAVHALLPAAGPKGYGLMMMIDVLSGVLLGLPFGRQVSSMYDDLHAGRNLGQLHIVINPNFFSSSELFRQHLSQTMRELNAITPAPGFNQVYYPGQDQDIKQRKAAVEGIEIVDDIYQYLISDALYNTSYETKNPFAQ show?
1.37

The origin of these recorded values is paper PMC3527362.
